Measured Activity values are reported for all entries that follow.
Species: Rattus norvegicus
Test: Compound was evaluated for in vitro uterotonic activity in the absence of magnesium ions in female wistar rats
Assay type: functional
Value expressed in IU/mg; do not type the unit.

INSERT INTO assay_data (molecule, metric, measured_number) VALUES
  ('NC(=O)CC[C@H](NC(=O)[C@H](Cc1ccccc1)NC(=O)[C@H](Cc1ccc(O)cc1)NC(=O)[C@@H](N)CS)C(=O)N[C@@H](CC(N)=O)C(=O)N[C@@H](CS)C(=O)N1CCC[C@H]1C(=O)N[C@H](CCCN=C(N)N)C(=O)NCC(N)=O', 'Activity', 0.4);

Query string: Identify measured Activity corresponding to `NC(=O)CC[C@H](NC(=O)C1(NC(=O)[C@H](Cc2ccc(O)cc2)NC(=O)[C@@H](N)CS)CCCCC1)C(=O)N[C@@H](CC(N)=O)C(=O)N[C@@H](CS)C(=O)N1CCC[C@H]1C(=O)N[C@H](CCCN=C(N)N)C(=O)NCC(N)=O`
Result string: 0

Query string: Identify measured Activity corresponding to `NC(=O)CC[C@H](NC(=O)C1(NC(=O)[C@H](Cc2ccc(O)cc2)NC(=O)CCS)CCCCC1)C(=O)N[C@@H](CC(N)=O)C(=O)N[C@@H](CS)C(=O)N1CCC[C@H]1C(=O)N[C@H](CCCN=C(N)N)C(=O)NCC(N)=O`
Result string: 0

* * *

Species on record: Rattus norvegicus
Experiment: Compound was evaluated for antidiuretic activity with t1/2 of 60 in male rats by modified Burn test
Type: functional, Urine
METRIC: Activity (IU/mg)
Value expressed in IU/mg; do not type the unit.

Query string: Identify measured Activity corresponding to N=C(N)NCCC[C@H](NC(=O)[C@@H]1CCCN1C(=O)[C@@H]1CSSC[C@H](N)C(=O)N[C@@H](Cc2ccc(O)cc2)C(=O)N[C@@H](Cc2ccccc2)C(=O)N[C@@H](CCC(N)=O)C(=O)N[C@@H](CC(N)=O)C(=O)N1)C(=O)NCC(N)=O [VASOPRESSIN]
Result string: 465

* * *

Organism: Rattus norvegicus
Experiment: Compound was evaluated for antidiuretic activity with t1/2 of 200 min in male rats by modified Burn test
Assay type: functional, Urine
Where a SMILES comes first, the peptide text is derived from it. [ ]: non-standard residue; d: D form. Ac6c = NC1(C(=O)O)CCCCC1
Measured Activity values are reported for all entries that follow.

INSERT INTO results (molecule, result) VALUES
  ('NC(=O)CC[C@H](NC(=O)[C@H](Cc1ccccc1)NC(=O)C1(NC(=O)CCS)CCCCC1)C(=O)N[C@@H](CC(N)=O)C(=O)N[C@@H](CS)C(=O)N1CCC[C@H]1C(=O)N[C@@H](CCCN=C(N)N)C(=O)NCC(N)=O', '~50000 IU/mg'),
  ('NC(=O)CC[C@H](NC(=O)[C@H](Cc1ccccc1)NC(=O)C1(NC(=O)[C@@H](N)CS)CCCCC1)C(=O)N[C@@H](CC(N)=O)C(=O)N[C@@H](CS)C(=O)N1CCC[C@H]1C(=O)N[C@H](CCCN=C(N)N)C(=O)NCC(N)=O', '~9300 IU/mg'),
  ('NC(=O)CC[C@H](NC(=O)C1(NC(=O)[C@H](Cc2ccc(O)cc2)NC(=O)[C@@H](N)CS)CCCCC1)C(=O)N[C@@H](CC(N)=O)C(=O)N[C@@H](CS)C(=O)N1CCC[C@H]1C(=O)N[C@@H](CCCN=C(N)N)C(=O)NCC(N)=O', '~1.4 IU/mg'),
  ('NC(=O)CC[C@H](NC(=O)[C@H](Cc1ccccc1)NC(=O)C1(NC(=O)CCS)CCCCC1)C(=O)N[C@@H](CC(N)=O)C(=O)N[C@@H](CS)C(=O)N1CCC[C@H]1C(=O)N[C@H](CCCN=C(N)N)C(=O)NCC(N)=O', '~50000 IU/mg'),
  ('CC(C)[C@H](NC(=O)C1(NC(=O)[C@H](Cc2ccc(O)cc2)NC(=O)CCS)CCCCC1)C(=O)N[C@@H](CC(N)=O)C(=O)N[C@@H](CS)C(=O)N1CCC[C@H]1C(=O)N[C@H](CCCN=C(N)N)C(=O)NCC(N)=O', '4500 IU/mg');

Query string: Identify measured Activity corresponding to CC(C)[C@H](NC(=O)[C@H](Cc1ccccc1)NC(=O)C1(NC(=O)[C@@H](N)CS)CCCCC1)C(=O)N[C@@H](CC(N)=O)C(=O)N[C@@H](CS)C(=O)N1CCC[C@H]1C(=O)N[C@@H](CCCN=C(N)N)C(=O)NCC(N)=O (H-C[Ac6c]FVNCPRG-NH2)
Result string: ~23000 IU/mg

Query string: Identify measured Activity corresponding to `NC(=O)CC[C@H](NC(=O)[C@H](Cc1ccccc1)NC(=O)C1(NC(=O)[C@@H](N)CS)CCCCC1)C(=O)N[C@@H](CC(N)=O)C(=O)N[C@@H](CS)C(=O)N1CCC[C@H]1C(=O)N[C@@H](CCCN=C(N)N)C(=O)NCC(N)=O`
Result string: ~9300 IU/mg

Query string: Identify measured Activity corresponding to `CC(C)[C@H](NC(=O)[C@H](Cc1ccccc1)NC(=O)C1(NC(=O)CCS)CCCCC1)C(=O)N[C@@H](CC(N)=O)C(=O)N[C@@H](CS)C(=O)N1CCC[C@H]1C(=O)N[C@H](CCCN=C(N)N)C(=O)NCC(N)=O`
Result string: ~50000 IU/mg

Query string: Identify measured Activity corresponding to `NC(=O)CC[C@H](NC(=O)C1(NC(=O)[C@H](Cc2ccc(O)cc2)NC(=O)[C@@H](N)CS)CCCCC1)C(=O)N[C@@H](CC(N)=O)C(=O)N[C@@H](CS)C(=O)N1CCC[C@H]1C(=O)N[C@H](CCCN=C(N)N)C(=O)NCC(N)=O`
Result string: ~1.4 IU/mg

Query string: Identify measured Activity corresponding to `NC(=O)CC[C@H](NC(=O)[C@H](Cc1ccccc1)NC(=O)C1(NC(=O)CC2(S)CCCCC2)CCCCC1)C(=O)N[C@@H](CC(N)=O)C(=O)N[C@@H](CS)C(=O)N1CCC[C@H]1C(=O)N[C@@H](CCCN=C(N)N)C(=O)NCC(N)=O`
Result string: ~1.4 IU/mg

Query string: Identify measured Activity corresponding to `NC(=O)CC[C@H](NC(=O)C1(NC(=O)[C@H](Cc2ccc(O)cc2)NC(=O)CCS)CCCCC1)C(=O)N[C@@H](CC(N)=O)C(=O)N[C@@H](CS)C(=O)N1CCC[C@H]1C(=O)N[C@@H](CCCN=C(N)N)C(=O)NCC(N)=O`
Result string: ~25 IU/mg

* * *

Species on record: Rattus norvegicus
Test: Compound was evaluated for antidiuretic activity with t1/2 of 60 in male rats by modified Burn test
Format: functional, Urine
Where a SMILES comes first, the peptide text is derived from it. [ ]: non-standard residue; d: D form. Ac6c = NC1(C(=O)O)CCCCC1
Measured Activity values are reported for all entries that follow.

Worked cases, answers included:
INSERT INTO assay_data (compound, result) VALUES
  ('CC(C)[C@H](NC(=O)[C@H](Cc1ccccc1)NC(=O)C1(NC(=O)CCS)CCCCC1)C(=O)N[C@@H](CC(N)=O)C(=O)N[C@@H](CS)C(=O)N1CCC[C@H]1C(=O)N[C@H](CCCN=C(N)N)C(=O)NCC(N)=O', '~4500 IU/mg'),
  ('CC(C)[C@H](NC(=O)C1(NC(=O)[C@H](Cc2ccc(O)cc2)NC(=O)[C@@H](N)CS)CCCCC1)C(=O)N[C@@H](CC(N)=O)C(=O)N[C@@H](CS)C(=O)N1CCC[C@H]1C(=O)N[C@@H](CCCN=C(N)N)C(=O)NCC(N)=O (H-CY[Ac6c]VNCPRG-NH2)', '<0.4 IU/mg'),
  ('CC(C)[C@H](NC(=O)[C@H](Cc1ccccc1)NC(=O)C1(NC(=O)[C@@H](N)CS)CCCCC1)C(=O)N[C@@H](CC(N)=O)C(=O)N[C@@H](CS)C(=O)N1CCC[C@H]1C(=O)N[C@@H](CCCN=C(N)N)C(=O)NCC(N)=O (H-C[Ac6c]FVNCPRG-NH2)', '~2300 IU/mg');

Could you now look at the following compound, please?
Query string: Identify measured Activity corresponding to `NC(=O)CC[C@H](NC(=O)[C@H](Cc1ccccc1)NC(=O)C1(NC(=O)CCS)CCCCC1)C(=O)N[C@@H](CC(N)=O)C(=O)N[C@@H](CS)C(=O)N1CCC[C@H]1C(=O)N[C@@H](CCCN=C(N)N)C(=O)NCC(N)=O`
Result string: ~4500 IU/mg

* * *

Species on record: Rattus norvegicus
Test: Compound was evaluated for vasopressor activity in phenoxybenzamine-treated male rats
Format: functional, organism-based
Settings: read-out: pA2 (converted)
Where a SMILES comes first, the peptide text is derived from it. The star is where a group is joined. Cyclohexylacetyl(1-SH) = O=C(CC1(S)CCCCC1)*
Measured Kb values are reported for all entries that follow.
Value expressed in nM; do not type the unit.

Worked cases, answers included:
INSERT INTO results (compound, measured_number) VALUES
  ('NC(=O)CC[C@H](NC(=O)[C@H](Cc1ccccc1)NC(=O)C1(NC(=O)CC2(S)CCCCC2)CCCCC1)C(=O)N[C@@H](CC(N)=O)C(=O)N[C@@H](CS)C(=O)N1CCC[C@H]1C(=O)N[C@@H](CCCN=C(N)N)C(=O)NCC(N)=O', 55),
  ('CC(C)[C@H](NC(=O)[C@H](Cc1ccccc1)NC(=O)C1(NC(=O)CCS)CCCCC1)C(=O)N[C@@H](CC(N)=O)C(=O)N[C@@H](CS)C(=O)N1CCC[C@H]1C(=O)N[C@H](CCCN=C(N)N)C(=O)NCC(N)=O', 724),
  ('NC(=O)CC[C@H](NC(=O)[C@H](Cc1ccccc1)NC(=O)C1(NC(=O)CC2(S)CCCCC2)CCCCC1)C(=O)N[C@@H](CC(N)=O)C(=O)N[C@@H](CS)C(=O)N1CCC[C@H]1C(=O)N[C@H](CCCN=C(N)N)C(=O)NCC(N)=O', 234);

Could you now look at the following compound, please?
Query string: Identify measured Kb corresponding to NC(=O)CC[C@H](NC(=O)[C@H](Cc1ccccc1)NC(=O)[C@H](Cc1ccc(O)cc1)NC(=O)CC1(S)CCCCC1)C(=O)N[C@@H](CC(N)=O)C(=O)N[C@@H](CS)C(=O)N1CCC[C@H]1C(=O)N[C@@H](CCCN=C(N)N)C(=O)NCC(N)=O ({Cyclohexylacetyl(1-SH)}-YFQNCPRG-NH2)
Result string: 4.47
